Assay: in vitro
Details: human, THP1 cells, Cell viability (Fig. S7a)
Square brackets hold non-standard residues; d marks the D form. Peptide text beside a SMILES is read from it.

compound	viability at 48 h, 100 µM [%]
CC(C)C[C@@H]1NC(=O)[C@H](CCCNC(=N)N)NC(=O)[C@H](C(C)C)NC(=O)[C@@H]2CCCN2C(=O)[C@@H](Cc2ccccc2)NC(=O)[C@H](CC(C)C)NC(=O)[C@H](CCCNC(=N)N)NC(=O)[C@H]([C@@H](C)O)NC(=O)[C@H](C)NC(=O)[C@@H](Cc2ccccc2)NC1=O [XQ2B] (cyclo([dF]ATRL[dF]PVRL))	3.61

---

Experiment: Cell viability (CCK-8), cytotoxicity
Details: human, THP1 cells, Cell viability (Fig. S2e), THP1 (48h), XQ2 0.63 μM
Square brackets hold non-standard residues; d marks the D form. Peptide text beside a SMILES is read from it.
outcome-measure: viability at 48 h, 0.63 µM

compound	outcome-measure	observed-result
CC(C)C[C@@H]1NC(=O)[C@H](CCCNC(=N)N)NC(=O)[C@H](C(C)C)NC(=O)[C@@H]2CCCN2C(=O)[C@@H](Cc2ccccc2)NC(=O)[C@H](CC(C)C)NC(=O)[C@H](CCCNC(=N)N)NC(=O)[C@H](C(C)C)NC(=O)[C@H](C)NC(=O)[C@@H](Cc2ccccc2)NC1=O [XQ2, Cyclo (LfAVRLfPVR)] (cyclo(L[dF]AVRL[dF]PVR))	viability at 48 h, 0.63 µM	94.8%

---

The entries below are paired with their reported inhibition at 20 µM.
Target: recombinant human cGAS enzyme (hcGAS-ΔN, residues 147–522) (Homo sapiens, UniProt Q8N884)
Construct: N-terminally truncated human cGAS (hcGAS-ΔN, residues 147–522); 6xHis-SUMO (N, cleaved yes); made in house; host or cells: Escherichia coli BL21 (DE3)
Sequence (Q8N884 147-522, stated change not applied): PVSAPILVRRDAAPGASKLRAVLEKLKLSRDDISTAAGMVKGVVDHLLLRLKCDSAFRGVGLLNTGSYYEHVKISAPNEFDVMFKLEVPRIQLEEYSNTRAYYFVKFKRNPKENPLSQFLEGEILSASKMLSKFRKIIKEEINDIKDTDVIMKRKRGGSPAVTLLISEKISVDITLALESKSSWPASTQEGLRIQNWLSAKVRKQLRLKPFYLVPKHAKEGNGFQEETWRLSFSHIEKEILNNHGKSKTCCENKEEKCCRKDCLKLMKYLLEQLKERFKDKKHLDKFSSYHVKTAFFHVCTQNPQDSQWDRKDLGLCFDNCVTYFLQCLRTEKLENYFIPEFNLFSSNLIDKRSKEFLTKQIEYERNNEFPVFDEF
Test: RNA-based fluorescent biosensor assay of cGAS activity (2',3'-cGAMP formation), in vitro screening
Type: biochemical
Conditions: peptides screened at 20 μM; Supplementary Table 1 / Fig. S5b; read-out: Inhibition %
Square brackets hold non-standard residues; d marks the D form. Peptide text beside a SMILES is read from it.

compound	inhibition at 20 µM / %
CC(C)C[C@@H]1NC(=O)[C@H](CCCNC(=N)N)NC(=O)[C@H](C(C)C)NC(=O)[C@@H]2CCCN2C(=O)[C@@H](Cc2ccccc2)NC(=O)[C@H](C)NC(=O)[C@H](CCCNC(=N)N)NC(=O)[C@H](C)NC(=O)[C@@H]2CCCN2C(=O)[C@@H](Cc2ccccc2)NC1=O [XQ15, Cyclo (AfPVRLfPAR)] (cyclo(ARA[dF]PVRL[dF]P))	0
CC(C)C[C@@H]1NC(=O)[C@H](C)NC(=O)[C@H](C(C)C)NC(=O)[C@@H]2CCCN2C(=O)[C@@H](CCCNC(=N)N)NC(=O)[C@H](CC(C)C)NC(=O)[C@H](CCCNC(=N)N)NC(=O)[C@H](C(C)C)NC(=O)[C@@H]2CCCN2C(=O)[C@@H](Cc2ccccc2)NC1=O [XQ55, Cyclo (LrPVALfPVR)] (cyclo(AL[dF]PVRL[dR]PV))	0
CC(C)C[C@@H]1NC(=O)[C@H](CCCNC(=N)N)NC(=O)[C@H](C(C)C)NC(=O)[C@@H]2CCCN2C(=O)[C@@H](Cc2ccccc2)NC(=O)[C@H](C)NC(=O)[C@H](CCCNC(=N)N)NC(=O)[C@H](CC(C)C)NC(=O)[C@@H]2CCCN2C(=O)[C@@H](Cc2ccccc2)NC1=O [XQ51, Cyclo (LfPLRAfPVR)] (cyclo(A[dF]PVRL[dF]PLR))	0
CC(C)[C@@H]1NC(=O)[C@@H]2CCCN2C(=O)[C@@H](Cc2ccccc2)NC(=O)[C@H](C)NC(=O)[C@H](CCCNC(=N)N)NC(=O)[C@H](C)NC(=O)[C@@H]2CCCN2C(=O)[C@@H](Cc2ccccc2)NC(=O)[C@H](C)NC(=O)[C@H](CCCNC(=N)N)NC1=O [XQ18, Cyclo (AfPARAfPVR)] (cyclo(ARA[dF]PVRA[dF]P))	5
